organism: Mus musculus; experiment: Percent of maximum response was tested to augment the antibody response of B cells to sheep red blood cell challenge; format: functional
Binary call on Max response: yes (1) from 90% upward, no (0) beneath that.

input: Item COc1ccc(CCNCC(O)Cn2c(=O)n(C3OC(CO)[C@@H](O)[C@H]3O)c3nc(N)nc(O)c32)cc1OC (stereo not given in full) with Max response of 90% or above?
output: no (0)

input: Likewise for C=CCn1c(=S)n(C2OC(COC(C)=O)[C@@H](OC(C)=O)[C@H]2OC(C)=O)c2nc(N)nc(O)c21 (stereo not given in full) ?
output: yes (1)

input: Try the molecule Nc1nc(O)c2c(n1)n(C1OC(CO)[C@@H](O)[C@H]1O)c(=O)n2CC(O)CSc1ccccc1 (stereo not given in full)
output: no (0)

input: Param item: CCCn1c(=O)n(C2CCC(COC(C)=O)O2)c2nc(NC(C)=O)nc(O)c21 (stereo not given)
output: yes (1)

input: Same read-out for Nc1nc(O)c2c(n1)n(C1OC(CO)[C@@H](O)[C@H]1O)c(=O)n2CC(=O)c1ccc(Cl)cc1 (stereo not given in full) ?
output: no (0)

input: Check C=CCn1c(=O)n(Cc2ccccc2)c2nc(N)nc(O)c21 too.
output: no (0)

input: Try this molecule too: C=CCn1c(=O)n(C2CN(CCCC)CC(CO)O2)c2nc(N)nc(O)c21 (stereo not given)
output: no (0)

input: Then this molecule: C=CCN1C(=C(C(=O)OCC)C(=O)OCC)N([C@H]2OC(CO)[C@H]3OC(C)(C)O[C@H]32)c2nc(N)nc(O)c21 (stereo not given in full)
output: no (0)

input: // same read-out, input: CCCn1c(=O)n(C2CCC(CO)O2)c2nc(N)nc(O)c21 (stereo not given)
output: yes (1)

input: Moving on to the next molecule: C=CCn1c(=O)n(C2C[C@H](O)C(CO)O2)c2nc(N)nc(O)c21 (stereo not given in full)
output: yes (1)

Further cases:
input: API: above_or_equal(metric=Max response, cutoff=90%) for item C=CCn1c(=O)n([C@@H]2O[C@H](CO)[C@H]3OC(=O)O[C@H]32)c2nc(N)nc(O)c21
output: no (0)

input: // next record Nc1nc(O)c2c(n1)n(C1OC(CO)[C@@H](O)[C@H]1O)c(=O)n2Cc1ccc(OCc2ccccc2)cc1 (stereo not given in full)
output: no (0)

input: Same question for CCCCn1c(=O)n(C2OC(CO)[C@@H](O)[C@H]2O)c2nc(N)nc(O)c21 (stereo not given in full) please.
output: no (0)

input: Do the same for Cn1c(=O)n([C@@H]2O[C@H](CO)[C@H]3OC(C)(C)O[C@H]32)c2nc(N)nc(O)c21 please
output: yes (1)

input: What do we get for Cn1c(=O)n2c3c1c(=O)nc(N)n3CC1OC2[C@H](O)C1O (single isomer, unassigned) ?
output: no (0)

input: // same read-out, input: C=CCn1c(=S)n(C2OC(COC(C)=O)[C@H]3OC(C)(C)O[C@@H]23)c2nc(N)nc(O)c21 (stereo not given in full)
output: yes (1)

input: And then Nc1nc(O)c2c(n1)n(C1OC(CO)[C@@H](O)[C@H]1O)c(=O)n2CC(O)CO (stereo not given in full) , what is it?
output: yes (1)

input: Same lookup for CC1OC(n2c(=O)n(C)c3c(O)nc(N)nc32)[C@H](O)[C@@H]1O (stereo not given in full) , please.
output: no (0)
